System: PRMT1 (protein arginine N-methyltransferase 1)
Test: PRMT1 binders on small-molecule microarrays, primary screen, biochemical, small-molecule microarray, 635 nm fluorescence (AID 1088);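 note: binding of Prmt1 protein to compounds spotted on small-molecule microarray slides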
Conditions: small-molecule microarray binding, higher = more signal
Hi, to clarify the labels: Y covers composite z-score from 0.5 upward, N covers anything below 0.5.

O=C1C2C=CC(C(O)c3ccc(I)cc3)N(Nc3ccccc3)C2C(=O)N1c1ccccc1 (configuration not stated) ... Y
COc1cc(NN2C(C(O)C3CCCCC3)C=CC3C(=O)N(C)C(=O)C32)cc(OC)c1OC (configuration not stated) ... Y
CN(C)CCCNC(=O)[C@@H]1c2ccccc2C(=O)N(C2CCCCC2)[C@H]1c1ccc(CO)cc1 ... Y
C=CCNC(=O)[C@@H]1[C@H]2C(=O)O[C@H](c3ccccc3)[C@H](c3ccccc3)N2[C@H](c2ccc(OCCO)cc2)[C@@]12C(=O)N(C(=O)OCCOC)c1ccc(C#CCCO)cc12 ... Y
COCCCNC(=O)[C@@]1(c2ccc([N+](=O)[O-])cc2)CC(=O)N(C(C)C)[C@@H]1c1ccc(CO)cc1 ... N
COC(=O)[C@@]1(Cc2ccccc2)[C@H]2c3cc(C(=O)N4CCCC4)n(CCSCCO)c3C[C@H]2CN1C(=O)c1ccccc1 ... N

Below: the item to evaluate.
Challenge: Given CCN(CC)c1ccc(N2CC=CC34O[C@@H]5/C=C\CCC(C)OC(=O)C5[C@H]3C(=O)N(C(C)CO)[C@@H]4C2=O)cc1 (some centres not stated) , state whether its composite z-score is at least 0.5.
Response given: N
